The values you see were collected from patent US20180099931A1.

TARGET_OR_TEST_SYSTEM: F508delCFTR (Homo sapiens, UniProt P13569, DEL508-508)
Construct: expressed in transfected cells; host or cells: CFBE41o- human lung-derived epithelial cells (CFBE4lo-F508delCFTR-HRP), doxycycline-inducible
Sequence (P13569 with tags, fused parts or gaps DEL508-508): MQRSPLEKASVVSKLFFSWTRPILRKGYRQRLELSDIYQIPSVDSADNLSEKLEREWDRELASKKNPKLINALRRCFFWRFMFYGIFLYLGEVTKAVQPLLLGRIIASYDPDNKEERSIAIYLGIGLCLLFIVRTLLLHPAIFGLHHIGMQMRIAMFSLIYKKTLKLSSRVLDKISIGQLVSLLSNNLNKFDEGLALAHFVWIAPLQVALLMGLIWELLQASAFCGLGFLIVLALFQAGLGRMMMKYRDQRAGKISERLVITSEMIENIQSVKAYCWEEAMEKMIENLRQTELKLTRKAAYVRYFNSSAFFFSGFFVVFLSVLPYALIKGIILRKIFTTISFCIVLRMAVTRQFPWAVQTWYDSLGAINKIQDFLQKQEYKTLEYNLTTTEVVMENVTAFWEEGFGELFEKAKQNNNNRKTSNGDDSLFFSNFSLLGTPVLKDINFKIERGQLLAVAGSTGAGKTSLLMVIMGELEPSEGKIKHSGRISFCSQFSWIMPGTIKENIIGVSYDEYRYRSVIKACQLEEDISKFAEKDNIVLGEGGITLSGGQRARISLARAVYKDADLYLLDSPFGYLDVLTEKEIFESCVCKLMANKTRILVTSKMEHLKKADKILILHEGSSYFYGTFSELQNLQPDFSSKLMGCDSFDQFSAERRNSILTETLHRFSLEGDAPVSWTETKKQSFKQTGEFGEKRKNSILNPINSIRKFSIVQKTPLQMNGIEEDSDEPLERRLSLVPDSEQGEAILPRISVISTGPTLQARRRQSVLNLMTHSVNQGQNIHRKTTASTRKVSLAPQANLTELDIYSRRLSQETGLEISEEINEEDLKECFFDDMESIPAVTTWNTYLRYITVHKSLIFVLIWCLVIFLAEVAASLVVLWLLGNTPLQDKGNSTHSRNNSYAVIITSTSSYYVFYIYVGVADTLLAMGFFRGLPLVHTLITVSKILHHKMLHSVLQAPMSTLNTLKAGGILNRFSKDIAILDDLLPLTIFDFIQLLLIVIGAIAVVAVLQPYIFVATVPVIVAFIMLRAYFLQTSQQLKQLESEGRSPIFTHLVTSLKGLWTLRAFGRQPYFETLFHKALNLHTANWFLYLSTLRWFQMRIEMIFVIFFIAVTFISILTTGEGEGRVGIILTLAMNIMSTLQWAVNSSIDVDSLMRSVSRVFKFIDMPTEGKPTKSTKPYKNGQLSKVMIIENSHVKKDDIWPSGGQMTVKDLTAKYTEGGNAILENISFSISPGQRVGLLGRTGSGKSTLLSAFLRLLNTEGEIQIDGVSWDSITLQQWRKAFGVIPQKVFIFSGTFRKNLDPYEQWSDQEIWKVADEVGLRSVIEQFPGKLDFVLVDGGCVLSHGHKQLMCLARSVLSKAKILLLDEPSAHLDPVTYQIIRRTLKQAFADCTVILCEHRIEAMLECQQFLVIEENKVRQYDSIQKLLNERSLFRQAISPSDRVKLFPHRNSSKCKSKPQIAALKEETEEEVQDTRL
EXPERIMENT_NOTES: Cell Surface Expression-Horse Radish Peroxidase (CSE-HRP) Assay;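 note: co-corrector and positive control are both the same reference corrector at 2 µM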
Type: cell-based
TEST_SETTINGS: with co-corrector (2 μM); maximum at any tested concentration, normalized to on-plate positive control
MEASUREMENT_TYPE: Maximum % activity (with co-corrector)

Specify Maximum % activity (with co-corrector) for `COc1ncc(C(C)(C)C)cc1N[C@H]1[C@H](C(C)(C)C)[C@@H](C(=O)O)N(C(=O)C2CCCCC2)[C@H]1c1ccccc1` , system F508delCFTR (Homo sapiens, UniProt P13569, DEL508-508).
++ (≥150 and <350)

Specify Maximum % activity (with co-corrector) for `COc1ncc(C(F)(F)F)cc1CN[C@H]1[C@H](C(C)(C)C)[C@@H](C(=O)O)N(C(=O)C2CCCCC2)[C@H]1c1ccccc1` , system F508delCFTR (Homo sapiens, UniProt P13569, DEL508-508).
+++ (≥350)

Specify Maximum % activity (with co-corrector) for `COc1ncc(C2CCC2)cc1CN[C@H]1[C@H](C(C)(C)C)[C@@H](C(=O)O)N(C(=O)[C@H]2CCCCO2)[C@H]1c1ccccc1C(C)C` , system F508delCFTR (Homo sapiens, UniProt P13569, DEL508-508).
+++ (≥350)

Specify Maximum % activity (with co-corrector) for `COc1nc(C(C)(C)C)ccc1CN[C@H]1[C@H](C(C)(C)C)[C@@H](C(=O)O)N(C(=O)OC(C)C)[C@H]1c1ccccc1C(C)C` , system F508delCFTR (Homo sapiens, UniProt P13569, DEL508-508).
+++ (≥350)

Specify Maximum % activity (with co-corrector) for COc1ccc(C(C)(C)C)cc1CN[C@H]1[C@H](C(C)(C)C)[C@@H](C(=O)O)N(C(=O)C2CCCC2(C)C)[C@H]1c1ccccc1 (stereo partly drawn) , system F508delCFTR (Homo sapiens, UniProt P13569, DEL508-508).
+++ (≥350)

Specify Maximum % activity (with co-corrector) for COc1ccc(C(C)(C)C)cc1CN[C@H]1[C@H](C(C)(C)C)[C@@H](C(=O)O)N(C(=O)[C@@H]2OCC[C@@H]2c2ccccc2)[C@H]1c1ccccc1 (relative stereo) , system F508delCFTR (Homo sapiens, UniProt P13569, DEL508-508).
+++ (≥350)

Specify Maximum % activity (with co-corrector) for `COc1ccc2ccccc2c1CN[C@H]1[C@H](C(C)(C)C)[C@@H](C(=O)O)N(C(=O)C2CCCCC2)[C@H]1c1ccccc1` , system F508delCFTR (Homo sapiens, UniProt P13569, DEL508-508).
++ (≥150 and <350)

Specify Maximum % activity (with co-corrector) for `COc1cc(C(F)(F)F)ccc1CN[C@@H]1[C@@H](C(C)(C)C)[C@H](C(=O)O)N(C(=O)[C@@H](OC)c2ccccc2)[C@@H]1c1ccccc1` , system F508delCFTR (Homo sapiens, UniProt P13569, DEL508-508).
++ (≥150 and <350)

Specify Maximum % activity (with co-corrector) for COc1ccc(C(C)(C)C)cc1CN[C@H]1[C@H](C(C)(C)C)[C@@H](C(=O)O)N(C(=O)C2CCCC(F)(F)C2)[C@H]1c1cccnc1N(C)C (single isomer, unassigned) [Example 44] , system F508delCFTR (Homo sapiens, UniProt P13569, DEL508-508).
+++ (≥350)

Specify Maximum % activity (with co-corrector) for `COc1ccc(C(C)(C)C)cc1CN[C@H]1[C@H](C(C)(C)C)[C@@H](C(=O)O)N(C(=O)OC(C)C)[C@H]1c1ccccc1C(C)C` , system F508delCFTR (Homo sapiens, UniProt P13569, DEL508-508).
+++ (≥350)

Next:
Specify Maximum % activity (with co-corrector) for COc1ccc(C(C)(C)C)cc1CN[C@H]1[C@H](C(C)(C)C)[C@@H](C(=O)O)N(C(=O)[C@@H]2C[C@H]3CC[C@@H]2O3)[C@H]1c1ccccc1 (relative stereo) , system F508delCFTR (Homo sapiens, UniProt P13569, DEL508-508).
+++ (≥350)

Specify Maximum % activity (with co-corrector) for `COc1ncc(C(F)(F)F)cc1CN[C@H]1[C@H](C(C)(C)C)[C@@H](C(=O)O)N(C(=O)[C@@H]2CCCCO2)[C@H]1c1cccnc1N(C)C` , system F508delCFTR (Homo sapiens, UniProt P13569, DEL508-508).
+++ (≥350)
